ID/g values by entry
Test system: Rattus norvegicus
EXPERIMENT: Biodistribution in lungs of immature female rat after 12 hour administration of 3 micro Ci (111 kBq) in the absence of 60 microg estradiol
Type: ADME, organism-based, Lung
CONDITION_SET: in vivo
Record the value in %, omitting the unit from your answer.

Answered examples (4):
# ENTRY_SMILES, U, ID/g
records = [
    ("C[C@@H]1Cc2c(ccc(O)c2F)[C@H]2CC[C@@]3(C)[C@@H](CC[C@@]3(O)/C=C/I)[C@H]12", "%", 0.23),
    ("C[C@]12CC[C@@H]3c4ccc(O)c(F)c4CC[C@H]3[C@@H]1CC[C@@]2(O)/C=C/I", "%", 0.1),
    ("C[C@@H]1Cc2cc(O)c(F)cc2[C@H]2CC[C@@]3(C)[C@@H](CC[C@@]3(O)/C=C/I)[C@H]12", "%", 0.12),
    ("C[C@]12CC[C@@H]3c4cc(F)c(O)cc4CC[C@H]3[C@@H]1CC[C@@]2(O)/C=C\\I", "%", 0.12),
]

query: Supply measured ID/g of CO[C@H]1C[C@@]2(C)[C@@H](CC[C@@]2(O)/C=C/I)[C@@H]2CCc3cc(O)c(F)cc3[C@H]21 in your reply.
result: 0.13

query: Quote ID/g reported for C[C@]12CC[C@@H]3c4cc(F)c(O)cc4CC[C@H]3[C@@H]1CC[C@@]2(O)/C=C/I please.
result: 0.1

query: Fill in ID/g for record C[C@]12CC[C@@H]3c4ccc(O)c(F)c4CC[C@H]3[C@@H]1CC[C@@]2(O)/C=C\I
result: 0.8

====

System: Rattus norvegicus
EXPERIMENT: Biodistribution in thyroid of immature female rat after 5 hour administration of 3 micro Ci (111 kBq) in the absence of 60 microg estradiol
Type: ADME, organism-based, Thyroid gland
CONDITION_SET: in vivo
OUTCOME_MEASURE: ID/g (%)
Expressed in %, but write only the number.

# ENTRY_SMILES, U, VALUE
rows = [
    ("C[C@]12CC[C@@H]3c4cc(F)c(O)cc4CC[C@H]3[C@@H]1CC[C@@]2(O)/C=C/I", "%", 43.46),
    ("CO[C@H]1C[C@@]2(C)[C@@H](CC[C@@]2(O)/C=C\\I)[C@@H]2CCc3c(ccc(O)c3F)[C@H]21", "%", 2369),
]

query: Please supply the value of reported ID/g for the item C[C@@H]1Cc2c(ccc(O)c2F)[C@H]2CC[C@@]3(C)[C@@H](CC[C@@]3(O)/C=C\I)[C@H]12
result: 380

query: Quote ID/g reported for C[C@@H]1Cc2cc(O)c(F)cc2[C@H]2CC[C@@]3(C)[C@@H](CC[C@@]3(O)/C=C/I)[C@H]12 please.
result: 203

query: Complete the entry with ID/g for C[C@]12CC[C@@H]3c4ccc(O)c(F)c4CC[C@H]3[C@@H]1CC[C@@]2(O)/C=C/I
result: 208

query: Indicate its recorded ID/g; the molecule in question is C[C@]12CC[C@@H]3c4ccc(O)c(F)c4CC[C@H]3[C@@H]1CC[C@@]2(O)/C=C\I
result: 117

====

Test system: Rattus norvegicus
EXPERIMENT: Biodistribution in muscle of immature female rat after 1 hr administration of 3 micro Ci (111 kBq) in the absence of 60 microg estradiol
Format: ADME, organism-based, Muscle tissue
CONDITION_SET: in vivo
Measured ID/g by item
Numeric answer plus unit only.

# ENTRY_SMILES, ID/g
rows = [
    ("C[C@]12CC[C@@H]3c4cc(F)c(O)cc4CC[C@H]3[C@@H]1CC[C@@]2(O)/C=C/I", "0.73%"),
    ("CO[C@H]1C[C@@]2(C)[C@@H](CC[C@@]2(O)/C=C/I)[C@@H]2CCc3cc(O)c(F)cc3[C@H]21", "0.87%"),
]

Kindly review the next molecule as well.
query: Hello, please tell me recorded ID/g for this one: C[C@@H]1Cc2c(ccc(O)c2F)[C@H]2CC[C@@]3(C)[C@@H](CC[C@@]3(O)/C=C/I)[C@H]12
result: 0.75%
